B1: POU domain, class 4, transcription factor 3, residues 185 to 256; numbered along this chain, Q15319 (parent)
chain: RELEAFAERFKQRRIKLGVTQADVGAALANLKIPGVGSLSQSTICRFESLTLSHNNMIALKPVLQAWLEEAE

# Variants of: B1
# test_name: abundance fitness (aPCA) (normalised: wild type 0, dead -1); higher = more abundant; growth selection in yeast, the domain comes from the species named
# condition_summary: Homo sapiens

variant_annotation	abundance fitness
I33L	0.062
A26G	-0.15
C45W	-0.234
S49V	-0.718
C45P	-0.25
S42I	-0.363
S40C	-0.066
V36N	-0.234
G25M	-0.27
I33K	-0.391
K32G	-0.169
